system: ATP; experiment: switch fluorescence ratio, 500 uM ATP over buffer (Cy3 cluster intensity, sum of 5 cycles each) (fold (ratio)); higher = stronger signal-on switching upon ATP binding; sequences stand for … in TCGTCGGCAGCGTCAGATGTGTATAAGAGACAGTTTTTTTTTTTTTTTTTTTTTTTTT…TC; settings: aptamer strand: ATP DNA aptamer (quencher-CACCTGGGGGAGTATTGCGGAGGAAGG + anchor), 100 nM annealed; ATP concentration: 500 uM;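 also: ATP exposure 15 min at 22 °C before imaging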
Measurement type: switch fluorescence ratio
Give bare numbers.

* CGGCGCCTGT | 1.01
* ATTTTGTTCT | 0.993
* AAAGGAGGTT | 1
* TCCAGAACCC | 1
* TTTCAGGTTT | 0.983

Hi, could you look up switch fluorescence ratio for each item in my list?
1. TTAGGTTTGT
2. CTGCGAGGAT
3. CGGAAGGCTA

Out:
1
1.01
1.02

----------
tested on: ATP; assay: switch fluorescence ratio, 500 uM ATP over buffer (Cy3 cluster intensity, sum of 5 cycles each) (fold (ratio)); higher = stronger signal-on switching upon ATP binding; sequences stand for … in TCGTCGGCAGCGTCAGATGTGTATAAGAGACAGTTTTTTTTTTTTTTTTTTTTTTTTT…TC; settings: aptamer strand: ATP DNA aptamer (quencher-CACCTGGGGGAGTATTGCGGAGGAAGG + anchor), 100 nM annealed; ATP concentration: 500 uM;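 also: ATP exposure 15 min at 22 °C before imaging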
Please provide measured switch fluorescence ratio for the entries that follow.
Give bare numbers.

// known answers, use as guide
* AGTAGCGTCG | 0.985
* TGAAAGTTGT | 1.02

Turning to the following sequence.
Reported switch fluorescence ratio for `TTATGAGTTT` was 0.988

----------
tested on: ATP; test: switch fluorescence ratio, 500 uM ATP over buffer (Cy3 cluster intensity, sum of 5 cycles each) (fold (ratio)); higher = stronger signal-on switching upon ATP binding; sequences stand for … in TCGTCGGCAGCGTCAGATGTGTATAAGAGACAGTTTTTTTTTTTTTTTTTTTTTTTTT…TC; conditions: aptamer strand: ATP DNA aptamer (quencher-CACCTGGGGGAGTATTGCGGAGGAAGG + anchor), 100 nM annealed; ATP concentration: 500 uM;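 also: ATP exposure 15 min at 22 °C before imaging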
Can you tell me switch fluorescence ratio for the items I'm about to list?
One number for each entry.

• TCGAAGAATG = 1.01

Below are 5 sequences. Give each one its switch fluorescence ratio.
1. GGGAGTGGGG
2. GGGGGTGACG
3. TCTTATAGGT
4. AGACGGGGCC
5. TAAATAGGGA

Out:
1: 0.989; 2: 0.995; 3: 0.986; 4: 1.01; 5: 1.01

Parameter requested: switch fluorescence ratio. Apply to each item below.
1. TTATTTTAAC
2. AGTGGGGCT
3. TTCAGATGCG
4. TGTTAATCAC
5. GGTCGCGGGT
6. ATTAGAGATT
7. TTACGTTTC
8. TAGTTTTCAT

Out:
0.981
0.979
0.993
1.02
1
1.01
1
1.02

----------
tested on: ATP; assay: switch fluorescence ratio, 500 uM ATP over buffer (Cy3 cluster intensity, sum of 5 cycles each) (fold (ratio)); higher = stronger signal-on switching upon ATP binding; sequences stand for … in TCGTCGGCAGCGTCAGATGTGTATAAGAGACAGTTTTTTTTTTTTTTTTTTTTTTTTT…TC; details: aptamer strand: ATP DNA aptamer (quencher-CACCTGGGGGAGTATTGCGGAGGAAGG + anchor), 100 nM annealed; ATP concentration: 500 uM;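 also: ATP exposure 15 min at 22 °C before imaging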
Measurement type: switch fluorescence ratio
One number for each entry.

Some solved entries appear below for comparison.
* TGGGGGCCCT | 0.996
* CATTTATTCT | 0.962
* CATCAAGGCA | 1.01
* ACATCGGGCT | 1.02
* TTAGGAAGGT | 1
* AAAGATATC | 0.984

Hi team, please reply with switch fluorescence ratio for each item in this list.
1. GCTATAGACT
2. ATGGCTGGGT
3. CATTAGAGGG
4. ATTCCAAGGA
5. TTTTGAAGGA
6. CGTGAGGGAG

Out:
1.02
0.971
0.988
0.985
1.01
0.994

Parameter requested: switch fluorescence ratio. Apply to each item below.
1. GGGTGAAGAT
2. GCAATAATGC
3. TGCTCTGCGT
4. ACGTGTACGG
5. CGGGAGTTAA
6. AAATTTATAA

Out:
[1.01, 1.6, 1.17, 1.03, 1.01, 0.984]

Each sequence below has a reported value. Please supply its switch fluorescence ratio.
1. GAGTGGGGGT
2. GAGAGGGTGT
3. ACTGTTCCGA

Out:
0.977
1.05
1.05
